The values you see were collected from a melting point compilation (Tetko et al.; mined from patent text by program, amines drawn as free bases though some values may be those of a salt).

observable: melting point

[
  {
    "compound": "Cc1cc(=O)[nH]c2ccc(OCCCN3CCC(NC(=O)c4ccccc4)CC3)cc12",
    "melting point": "243 to 245 °C"
  },
  {
    "compound": "COc1cc(OC)nc(Oc2cccc3c2C(=O)OC3OCC#N)n1 (stereo not given)",
    "melting point": "99 to 102 °C"
  },
  {
    "compound": "Fc1ccccc1N1CCN(c2ccc(Cl)nn2)CC1",
    "melting point": "148 °C"
  }
]

Quick one: give me melting point for each item below, same order please.
1. COc1cccc(C(=O)O)c1OCc1nc(-c2ccco2)oc1C
2. CCC(=O)Nc1nc(CN2CCC(OC(c3ccccc3)c3ccccc3)CC2)cs1
3. CCCCN(C(=O)CNC(=O)c1cc2ccccc2n1CC(=O)OC)c1c(OC)cc(C)cc1OC
4. CCNC(=S)NCc1ccc(/C=C/C(c2cc(Cl)c(Cl)c(Cl)c2)C(F)(F)F)cc1Cl (stereo not given)
5. CCC(Oc1cccc2ccccc12)C(=O)OC1CC(O)C=C2C=CC(C)C(CCC3CC(O)CC(=O)O3)C21 (stereo not given)
6. CCOC(=O)CCc1cc(-c2ccc(C)cc2)n(-c2ccc(S(N)(=O)=O)cc2)n1
7. COC(=O)Cc1cc(OCc2ccccc2)ccc1OC

198 to 199 °C
86 to 88 °C
139 °C
88 to 91 °C
138 to 140 °C
116 to 117 °C
74 to 75 °C

Lab note: each compound below needs its melting point filled in.
1. N#Cc1cccc2c(Cl)ccc([N+](=O)[O-])c12
2. COc1ccc2c(c1)CCC1CC(=O)N(c3ccccn3)N=C21 (stereo not given)
3. O=C(O)C(Oc1ccc(N2CCCCC2)cc1)c1cccc(Cl)c1 (stereo not given)
4. O=C(O)CCc1ccccc1Cc1ccc(Cl)cc1
5. CC(C)(C)c1cc(C2N(c3ccc(Cl)cc3)CCN2c2ccc(Cl)cc2)cc(C(C)(C)C)c1O
6. COc1ccc(OC)c(Cc2ccc3nc(N)nc(N)c3c2)c1
7. CC12CC=C3C(CCC4(CCC#N)CC(O[Si](C)(C)C(C)(C)C)CCC34C)C1CCC2O[Si](C)(C)C(C)(C)C (stereo not given)

1. 210 to 212 °C
2. 194 to 196 °C
3. 149 to 151 °C
4. 107 to 109 °C
5. 220 to 222 °C
6. 190 to 192 °C
7. 194 to 195 °C

###

observable: melting point

[
  {
    "compound": "Cn1c2ccc(Cl)cc2c2c3ccccc3c(=O)[nH]c21",
    "melting point": "> 300 °C"
  },
  {
    "compound": "Cc1cccc(-c2n[nH]cc2-c2ccc(F)c(-c3ncc(C(C)(C)O)cn3)c2)n1",
    "melting point": "162 °C"
  },
  {
    "compound": "CC1(C)NCCc2c1oc1cc(S(=O)(=O)c3cccc(F)c3)ccc21",
    "melting point": "110 to 114 °C"
  },
  {
    "compound": "COc1nc(C)c(C(C)O)cc1NC(=O)N1CCN(c2cc(C)cc(C)c2)CC1 (stereo not given)",
    "melting point": "153 to 154 °C"
  },
  {
    "compound": "COC(=O)CCC#Cc1cc(Cl)ccc1N",
    "melting point": "67 °C"
  }
]

Give melting point for each of the items listed below.
1. CCNC(=S)Nc1ccc2[nH]c3cnc(C(=O)OC(C)C)c(CC)c3c2c1
2. Cc1nc(C)c(C(C)(O)c2ccccn2)s1 (stereo not given)
3. CN(C)c1ccc(C2SCC(C(=O)O)N2C(=O)OC(C)(C)C)cc1 (mixture of isomers)
4. COc1ccc2c(c1)N(CCNC(C)=O)CCO2
5. Cc1cc([C@@H]2C[C@H]2c2nc3ccccc3n2C)cc(-n2nc(C)nc2C)n1 (relative stereo)

1: 234 to 236 °C; 2: 104 to 105 °C; 3: 175 °C; 4: 107 to 108 °C; 5: 157 to 159 °C

###

Task for the reader: assign each of the following compounds its reported melting point.

Known results for compounds:
[
  {
    "compound": "COC(=O)c1ccc(C(=O)c2ccccc2)o1",
    "observable": "melting point",
    "result": "70 to 73 °C"
  },
  {
    "compound": "O=C1CCCc2nc3ccccc3c(NCc3ccc(C(F)(F)F)cc3)c21",
    "observable": "melting point",
    "result": "174 to 176 °C"
  },
  {
    "compound": "O=C(Nc1cc(C2CC2)n[nH]1)c1ccc[nH]1",
    "observable": "melting point",
    "result": "207 to 209 °C"
  },
  {
    "compound": "CC(=O)NCCC1CCc2ccc3nn(C)cc3c21 (stereo not given)",
    "observable": "melting point",
    "result": "123 to 125 °C"
  }
]

For every listed record, write down its melting point.
1. CCOCc1nc2c(N)nc(C)c(C)c2n1Cc1cc(-c2ccc(F)cc2)no1
2. CN1C(=O)CC[C@]2(C)c3ccc(-c4ccc(F)cc4F)cc3CC[C@@H]12
3. Cc1ccc(Cl)c(C2CC(=O)c3c(C)ccnc3C2)c1 (stereo not given)

1. 246 to 247 °C
2. 108 to 112 °C
3. 123 to 124 °C

State recorded melting point for all listed compounds.
1. CCOC(=O)c1c(O)c2ccsc2n(Cc2ccccc2)c1=O
2. CC12CCC(C(=O)O)=CC1=CCC1C2CCC2(C)C(C(=O)CCc3ccc(F)cc3)CCC12 (stereo not given)
3. Cc1ccc(-c2ccc(F)cc2)cc1-c1c(O)c(C)nn(C)c1=O

1. 146 °C
2. 220 °C
3. 216 to 217 °C

###

observable: melting point

Here is how some compounds turned out for melting point.
[
  {
    "compound": "Cc1onc(-c2ccccc2)c1-c1csc(N)n1",
    "result": "223 to 224 °C"
  },
  {
    "compound": "CC(C)Oc1ccc(C=O)cc1OCCN1C(=O)c2ccccc2C1=O",
    "result": "110 °C"
  },
  {
    "compound": "CCC(=S)NC[C@H]1CN(c2ccc(N3CCOCC3)c(F)c2)C(=O)O1",
    "result": "138 to 139 °C"
  },
  {
    "compound": "O=Cc1ccc(Cl)c(Cl)c1O",
    "result": "97 °C"
  },
  {
    "compound": "COC(=O)C(O)C1OC(n2cnc3c(N)ncnc32)C(O)C1O (stereo unspecified)",
    "result": "215 to 217 °C"
  },
  {
    "compound": "CC(C)(C)OC(=O)CC1(C(=O)OCc2ccccc2)C(=O)N(Cc2ccc(Cl)c(Cl)c2)C(=O)c2cccn21 (stereo unspecified)",
    "result": "86 to 88 °C"
  },
  {
    "compound": "CCCCc1nc2cccc(C(=O)O)c2n1Cc1ccc(-c2cncnc2-c2nnn[nH]2)cc1",
    "result": "209 to 212 °C"
  },
  {
    "compound": "CCC[C@H]1CCC[C@H](N2C(=O)c3ccccc3C2=O)C(=O)N1",
    "result": "146 to 151 °C"
  },
  {
    "compound": "COC(=O)C1(NC(=O)Cc2cc(C)ccc2C)CCN(OC)CC1",
    "result": "91 to 93 °C"
  },
  {
    "compound": "CC(C)(C)COc1nc(N2CCNCC2)nc(N2CCS(=O)CC2)c1[N+](=O)[O-]",
    "result": "156 to 158 °C"
  }
]

State recorded melting point for all listed compounds.
1. COCCOc1cc2ncc(C#N)c(Cl)c2cc1OCc1ccccc1
2. CC(C)(Oc1ccc(C2CCOCC2)cc1Cl)C(=O)O
3. CC(C)n1c2ccccc2c2cc(NC(=O)c3ccccc3Cl)ccc21

["142 to 145 °C", "141 °C", "195 °C"]

// each compound listed below needs its melting point
1. COc1ccc(-c2nc(Sc3ccc(C)cc3)n(Cc3ccccc3)c2-c2ccc(OC)cc2)cc1
2. O=C(C=C(Cl)Cl)c1cc(F)c(Cl)cc1Cl
3. COC(=O)c1c(C(=O)OC)c(-c2ccc(OC)c(OC)c2)c2sccc2c1OC
4. C=CCN1CC(=O)N(c2c(C)cccc2C)C1=S
5. COC(=O)[C@H]1CC[C@H](n2ccn(-c3ccc(OCc4ccccc4)cc3)c2=O)CC1
6. CCNC(=O)c1ccc(N2CCN(Cc3cc4c(c(OC(F)F)c3)OC(C)C(=O)N4)CC2)c(Cl)c1 (stereo unspecified)

115 to 117 °C
64 to 65 °C
118 °C
43 to 46 °C
183 to 185 °C
102 to 104 °C

###

For each of the molecules below, state its melting point.

These recorded examples may help you get a feel for the data.
[
  {
    "molecule": "Cc1ccc(NC(=O)NCc2cccc3c2CN(C2CCC(=O)NC2=O)C3=O)cc1Cl (stereo not given)",
    "melting point": "> 260 °C"
  },
  {
    "molecule": "c1cc2c(cc1N1CCNCC1)OCCO2",
    "melting point": "138 °C"
  },
  {
    "molecule": "COc1ccc(C(=O)Cc2c(Cl)cncc2Cl)c2c(CC(=O)OCc3ccccc3)coc12",
    "melting point": "132 to 133 °C"
  }
]

List reported melting point for each of these molecules:
1. CC(=O)C1(C)COC(C)(C)OC1
2. NS(=O)(=O)c1cnc(-c2ccccc2)s1
3. CCOC(=O)c1cc(C#N)c(N)cc1OC

1: 48 to 50 °C; 2: 209 to 210 °C; 3: 164 °C

// for each molecule in input: emit melting point
1. O=C(O)CNC(=O)c1c(O)n(C2CCCCC2)c(=O)n(C2CCCC2)c1=O
2. C(=C\c1nc(COc2ccc(CCCn3ccnc3)cc2)co1)/c1ccccc1

1. 222 to 224 °C
2. 127 to 128 °C

# batch size: 2; output melting point per entry
1. CCN1CC(=O)N(CC)c2cc(Nc3ncc(Cl)c(Nc4ccccc4S(=O)(=O)N(C)C)n3)c(OC)cc2C1
2. Cn1cc(C2=C(c3c4n(c5ccccc35)CCC(CNC(=O)c3ccccc3)C4)C(=O)NC2=O)c2ccccc21 (stereo not given)

195 to 197 °C
297 to 303 °C
